Each item that follows carries a reported IC50.
target: PRMT5 (Homo sapiens); construct: purchased Viva (custom protein); experiment: PRMT5 biochemical IC50 assay with no cofactor; conditions: PRMT5, no cofactor; read-out: No Cofactor/ rel IC50

Study these solved cases before continuing.
Cc1cc(NC(=O)C(=O)N2C[C@H](C)CC[C@@H]2C2CCNC(=O)C2)cnc1N (mixture of isomers)	50 to 500 nM
CC[C@H]1CC[C@@H](c2ccccc2)N(C(=O)C(=O)Nc2cncc(C)c2)C1 (single isomer, unassigned)	> 500 nM
Cc1cc(NC(=O)C(=O)N2C[C@H](C)CC[C@@H]2C)cnc1N (racemic)	50 to 500 nM

Ask: Check PRMT5 (Homo sapiens) data and give IC50 for CC1CCC(C2CCCC2)CN1C(=O)C(=O)Nc1cncc(C(N)=O)c1 (racemic) .
Result: > 500 nM

* * *

Each item that follows carries a reported pIC50.
target: PRMT5 (Homo sapiens); construct: purchased Viva (custom protein); test: PRMT5 biochemical IC50 assay with no cofactor; details: PRMT5, no cofactor; read-out: No Cofactor/rel IC50
pIC50: −log10 of the molar value.

Ask: Consider the compound Cc1cc(NC(=O)C(=O)N2[C@@H](C)CCC[C@H]2c2ccccc2)cnc1N (single isomer, unassigned) [Compound 417] . State its measured pIC50.
Result: < 6.30

Ask: Consider the compound C[C@H]1CC[C@H](c2ccc(-c3cncs3)cc2)N(C(=O)C(=O)Nc2cncc(C(N)=O)c2)C1 (single isomer, unassigned) [Compound 821] . State its measured pIC50.
Result: 6.30 to 7.30

Ask: Consider the compound Cc1cc(NC(=O)C(=O)N2C[C@@H](C)CC[C@@H]2c2ccc3[nH]ncc3n2)cnc1N (single isomer, unassigned) [Compound 780] . State its measured pIC50.
Result: < 6.30

Ask: Consider the compound Cc1cc(NC(=O)C(=O)N2C[C@@H](C)CC[C@@H]2[C@H]2CC[C@@H](C(C)(C)C)CC2)cnc1N (single isomer, unassigned) [Compound 290] . State its measured pIC50.
Result: < 6.30

Ask: Consider the compound C[C@H]1CC[C@H](c2cccc(C(F)(F)F)c2)N(C(=O)C(=O)Nc2cncc(C(N)=O)c2)C1 (single isomer, unassigned) [Compound 509] . State its measured pIC50.
Result: 6.30 to 7.30

Ask: Consider the compound C[C@@H]1CC[C@@H](c2cc(F)c(F)c(F)c2)N(C(=O)C(=O)Nc2cncc(C(N)=O)c2)C1 (single isomer, unassigned) [Compound 476] . State its measured pIC50.
Result: < 6.30

* * *

Each item that follows carries a reported pIC50.
biological target: PRMT5 (Homo sapiens); construct: purchased Viva (custom protein); experiment: PRMT5 biochemical IC50 assay with SAM as cofactor; conditions: PRMT5, SAM as cofactor; read-out: SAM IC50
pIC50: −log10 of the molar value.

Study these solved cases before continuing.
Cc1ccc([C@@H]2CC(F)(F)[C@@H](C)CN2C(=O)C(=O)Nc2cncc(C(N)=O)c2)cn1 (single isomer, unassigned) [Compound 946]	< 6.30
CCc1cc(NC(=O)C(=O)N2C[C@H](C)CC[C@H]2c2ccc3[nH]ncc3c2)cnc1N (single isomer, unassigned) [Compound 579]	< 6.30
C[C@H]1CC[C@H](c2ccc(NCC(F)(F)F)cc2)N(C(=O)C(=O)Nc2cncc(C(N)=O)c2)C1 (single isomer, unassigned) [Compound 456]	< 6.30
CCc1cc(NC(=O)C(=O)N2C[C@H](C)CC[C@H]2c2ccc3cnccc3c2)cnc1N (single isomer, unassigned) [Compound 919]	6.30 to 7.30
CNS(=O)(=O)c1ccc([C@@H]2CC[C@@H](C)CN2C(=O)C(=O)Nc2cncc(C(N)=O)c2)cc1 (racemic) [Compound 652]	6.30 to 7.30
Cc1cc(NC(=O)C(=O)N2C[C@@H](C)CC[C@@H]2C23CC(C(N)=O)(C2)C3)cnc1N (single isomer, unassigned) [Compound 1061]	< 6.30
COc1ncc(NC(=O)C(=O)N2C[C@@H](C)CC[C@@H]2c2ccc(C)nc2)cc1C(N)=O (single isomer, unassigned) [Compound 770]	< 6.30
Cc1cncc(NC(=O)C(=O)N2C[C@H](C)CC[C@H]2c2cccc(C)c2)c1 (racemic) [Compound 8]	< 6.30
C[C@H]1CC[C@H]([C@@H]2CCC[C@H](O)C2)N(C(=O)C(=O)Nc2cncc(C(N)=O)c2)C1 (single isomer, unassigned) [Compound 529]	< 6.30
CCc1cc(NC(=O)C(=O)N2C[C@@H](C)CC[C@@H]2c2cccc(OCCN(C)C)c2)cnc1N [Compound 1175]	> 7.30

Ask: Check PRMT5 (Homo sapiens) data and give pIC50 for C[C@H]1CC[C@H](c2ccc(C(F)(F)F)cc2)N(C(=O)C(=O)Nc2cncc(C(N)=O)c2)C1 (single isomer, unassigned) [Compound 511] .
Result: 6.30 to 7.30

Ask: Check PRMT5 (Homo sapiens) data and give pIC50 for C[C@@H]1CC[C@@H](c2ccc(N[C@@H]3CCN(C)C3=O)cc2)N(C(=O)C(=O)Nc2cncc(C(N)=O)c2)C1 (racemic) [Compound 430] .
Result: 6.30 to 7.30

Ask: Check PRMT5 (Homo sapiens) data and give pIC50 for NC(=O)c1cncc(NC(=O)C(=O)N2CCCCC2C2CCCCC2)c1 (single isomer, unassigned) [Compound 108] .
Result: < 6.30

Ask: Check PRMT5 (Homo sapiens) data and give pIC50 for Cc1cncc(NC(=O)C(=O)N2C[C@@H](C)CC[C@@H]2c2cccc(Cl)c2)c1 (single isomer, unassigned) [Compound 87] .
Result: 6.30 to 7.30

Ask: Check PRMT5 (Homo sapiens) data and give pIC50 for CC1Cc2cc([C@@H]3CC[C@@H](C)CN3C(=O)C(=O)Nc3cncc(C(N)=O)c3)ccc2O1 (mixture of isomers) [Compound 151] .
Result: 6.30 to 7.30

* * *

molecular target: PRMT5 (Homo sapiens, UniProt O14744); construct: purchased Viva (custom protein); assay: PRMT5 biochemical IC50 assay with no cofactor; conditions: PRMT5, no cofactor; read-out: No Cofactor/rel IC50
Sequence (O14744 whole entry): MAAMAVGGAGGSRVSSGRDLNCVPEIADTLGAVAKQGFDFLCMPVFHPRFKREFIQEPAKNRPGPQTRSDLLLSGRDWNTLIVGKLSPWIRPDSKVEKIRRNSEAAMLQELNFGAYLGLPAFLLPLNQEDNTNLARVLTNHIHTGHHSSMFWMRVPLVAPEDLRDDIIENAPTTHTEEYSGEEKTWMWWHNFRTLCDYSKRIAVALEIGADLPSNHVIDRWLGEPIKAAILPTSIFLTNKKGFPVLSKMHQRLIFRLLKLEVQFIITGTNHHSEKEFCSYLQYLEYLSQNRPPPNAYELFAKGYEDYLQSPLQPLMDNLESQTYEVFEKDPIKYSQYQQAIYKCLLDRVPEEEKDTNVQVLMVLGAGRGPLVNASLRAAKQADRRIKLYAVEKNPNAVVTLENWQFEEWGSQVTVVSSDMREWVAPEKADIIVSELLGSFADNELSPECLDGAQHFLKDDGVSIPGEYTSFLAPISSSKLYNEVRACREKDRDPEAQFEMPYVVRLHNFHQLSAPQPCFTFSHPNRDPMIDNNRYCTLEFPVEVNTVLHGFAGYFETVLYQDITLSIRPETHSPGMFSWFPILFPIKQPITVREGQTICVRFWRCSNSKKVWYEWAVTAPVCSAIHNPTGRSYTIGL
Sequence (Q9BQA1 whole entry partner): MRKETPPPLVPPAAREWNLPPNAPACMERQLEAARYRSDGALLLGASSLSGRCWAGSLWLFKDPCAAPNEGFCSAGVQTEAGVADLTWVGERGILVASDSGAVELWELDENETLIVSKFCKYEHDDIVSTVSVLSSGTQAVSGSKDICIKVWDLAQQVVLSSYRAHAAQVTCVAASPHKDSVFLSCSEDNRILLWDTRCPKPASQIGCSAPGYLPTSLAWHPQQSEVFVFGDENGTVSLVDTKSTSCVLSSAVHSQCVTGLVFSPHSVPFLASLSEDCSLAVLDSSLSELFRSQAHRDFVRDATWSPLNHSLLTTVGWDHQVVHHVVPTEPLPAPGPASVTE
Each item that follows carries a reported IC50.

Study these solved cases before continuing.
Cc1cc(NC(=O)C(=O)N2C[C@H](C)CC[C@H]2c2cc(F)c(F)c(Cl)c2)cnc1N (single isomer, unassigned) [Compound 847]	> 500 nM
Cc1cc(NC(=O)C(=O)N2C[C@@H](C)CC[C@@H]2c2cc(F)c(F)c(Cl)c2)cnc1N (single isomer, unassigned) [Compound 857]	50 to 500 nM
CCc1cc(NC(=O)C(=O)N2C[C@@H](C)CC[C@@H]2c2ccc3cn(C4CCN(C)CC4)nc3c2)cnc1N (racemic) [Compound 1096]	< 50 nM
CCc1cc(NC(=O)C(=O)N2C[C@@H](C)CC[C@@H]2c2ccc(N3CCN(C)CC3)nc2)cnc1N (single isomer, unassigned) [Compound 1103]	< 50 nM
C[C@@H]1CC[C@@H](c2ccc3c(c2)C[C@@H](C)O3)N(C(=O)C(=O)Nc2cncc(C(N)=O)c2)C1 (single isomer, unassigned) [Compound 329]	50 to 500 nM

Let us move to another entry and its IC50.
Ask: Consider the molecule CNC(=O)[C@@H]1CC[C@H](c2ccccc2)N(C(=O)C(=O)Nc2cnc(N)c(C)c2)C1 (racemic) [Compound 253] . State its measured IC50.
Result: > 500 nM

* * *

target: PRMT5 (Homo sapiens); construct: purchased Viva (custom protein); assay: PRMT5 biochemical IC50 assay with SAM as cofactor; conditions: PRMT5, SAM as cofactor; read-out: SAM IC50
pIC50: −log10 of the molar value.
Each item that follows carries a reported pIC50.

CCc1cc(NC(=O)C(=O)N2C[C@@H](C)CC[C@@H]2c2ccc3c(c2)C(=O)NC3)cnc1N (single isomer, unassigned)	6.30 to 7.30
Cc1ncc(NC(=O)C(=O)N2C[C@H](C)CC[C@H]2c2ccc3c(c2)CCC(=O)N3)cc1C(F)F (racemic) [Compound 803]	6.30 to 7.30
COc1ncc(NC(=O)C(=O)N2CCCCC2C2CCCCC2)cc1C(N)=O (single isomer, unassigned) [Compound 317]	< 6.30

Ask: Consider the molecule Cc1cc(NC(=O)C(=O)N2C[C@H](C)CC[C@H]2c2ccc(C(F)(F)F)cc2)cnc1N (single isomer, unassigned) . State its measured pIC50.
Result: 6.30 to 7.30

Ask: Consider the molecule C[C@@H]1CC[C@H](C2CCCCC2)N(C(=O)C(=O)Nc2cncc(C(N)=O)c2)C1 (single isomer, unassigned) . State its measured pIC50.
Result: < 6.30

Ask: Consider the molecule Cc1cncc(NC(=O)C(=O)N2C[C@@H](C)CC[C@@H]2c2ccc(C)c(C)c2)c1 (single isomer, unassigned) . State its measured pIC50.
Result: < 6.30

* * *

Each item that follows carries a reported IC50.
system: HAP1 MTAP-intact cell line; assay: SDMA in-cell western assay, HAP1 MTAP-intact; format: cell-based; details: Homo sapiens, HAP1, read-out: MTAP HAP1 intact IC50

Study these solved cases before continuing.
Cc1cc(NC(=O)C(=O)N2C[C@H](C)CC[C@H]2c2ccc(O)cc2)cnc1N (racemic)	100 to 1000 nM
Cc1cc(NC(=O)C(=O)N2C[C@H](C)CC[C@H]2c2ccc(F)cc2)cnc1N (single isomer, unassigned)	> 1000 nM
C[C@H]1CC[C@@H](c2ccccc2)N(C(=O)C(=O)Nc2cncc(C(N)=O)c2)C1 (single isomer, unassigned)	> 1000 nM
C[C@@H]1CC[C@@H](c2ccc(O)cc2)N(C(=O)C(=O)Nc2cncc(C(N)=O)c2)C1 (single isomer, unassigned)	> 1000 nM
COc1ncc(NC(=O)C(=O)N2C[C@H](C)CC[C@H]2c2ccc(O)cc2)cc1C(N)=O (single isomer, unassigned)	> 1000 nM
C[C@H]1CC[C@H](c2ccc(C(F)F)cc2)N(C(=O)C(=O)Nc2cncc(C(N)=O)c2)C1 (single isomer, unassigned)	> 1000 nM
C[C@H]1CC[C@H](c2ccc3c(c2)CCC(=O)N3)N(C(=O)C(=O)Nc2cncc(C(N)=O)c2)C1 (single isomer, unassigned)	> 1000 nM
Cc1cc(NC(=O)C(=O)N2C[C@H](C)CC[C@H]2c2ccc3sc(C4CCN(C)CC4)nc3c2)cnc1N (single isomer, unassigned)	100 to 1000 nM
C[C@H]1CC[C@H](c2ccc3c(c2)CC(=O)N3)N(C(=O)C(=O)Nc2cncc(C(N)=O)c2)C1 (single isomer, unassigned)	100 to 1000 nM

Ask: Consider the molecule Cc1cc(NC(=O)C(=O)N2C[C@@H](C)CC[C@@H]2c2ccc3[nH]ccc3c2)cnc1N (single isomer, unassigned) . State its measured IC50.
Result: > 1000 nM
